Details: [M+Na]+; instrument: DT; single field, calibrated with Agilent tune mix (Agilent)
Recorded collision cross section (N2) by entry
Number first, unit second: that is the form wanted.

Guide cases for collision cross section (N2), answers given:
Molecule	Measured value
CCCCCCCC/C=C\CCCCCCCC(=O)OC[C@@H](O)COP(=O)(O)OC[C@H](N)C(=O)O	227 Å²
CCCCCCCCCC/C=C\CCCCCCCCCC(=O)O[C@H](COC(=O)CCCCCCCCCCCCC)COP(=O)(O)OC[C@H](N)C(=O)O	287.5 Å²
CCCCC/C=C\C/C=C\CCCCCCCCCCCC(=O)O[C@H](COC(=O)CCCCCCC/C=C\CCCCCC)COP(=O)(O)O[C@H]1C(O)C(O)C(O)[C@@H](O)C1O (stereo partly specified)	303.1 Å²
CCCCCC/C=C\CCCCCCCC(=O)OC[C@H](COP(=O)(O)OC[C@@H](O)CO)OC(=O)CCCCCCCCCCCCCCCCCCC	287.5 Å²
CC/C=C\C/C=C\C/C=C\C/C=C\C/C=C\CCCC(=O)OC[C@H](COP(=O)(O)OCCN)OC(=O)CCC/C=C\C/C=C\C/C=C\C/C=C\CCCCC	283.1 Å²

For the next question, use this molecule.
### Prompt Quick check: collision cross section (N2) of CCCCCCCCCCCCC=CC[C@@H](O)[C@H](COP(=O)([O-])OCC[N+](C)(C)C)NC(=O)CCCCCCCCCCCCCCCCCCCCC ?
### Response 300.5 Å²

* * *

Conditions: [M+Na]+; instrument: DT; single field, calibrated with Agilent tune mix (Agilent)
Recorded collision cross section (N2) by entry
Just the number please, in Å², no unit attached.

Compound	Unit symbol	collision cross section (N2)
CCCCCC/C=C\CCCCCCCCCC(=O)O[C@H](CO)COP(=O)(O)OCCN	Å²	222.1
CCCCCCCCCC/C=C\CCCCCCCCCC(=O)O[C@H](COC(=O)CCCCCCCCCCC)COP(=O)(O)OCCN	Å²	281.2
CC/C=C\C/C=C\C/C=C\C/C=C\C/C=C\C/C=C\CCC(=O)O[C@H](COC(=O)CCCCCCCCCCCCCCC)COP(=O)(O)OC[C@@H](O)CO	Å²	286
CCCCC/C=C\C/C=C\CCCCCCCCCCCC(=O)O[C@H](COC(=O)CCCCCCC/C=C\C/C=C\CCCCC)COP(=O)(O)O[C@H]1C(O)C(O)C(O)[C@@H](O)C1O (stereo partly specified)	Å²	307.1
CCCCC/C=C\C/C=C\C/C=C\CCCCC(=O)OC[C@H](COP(=O)([O-])OCC[N+](C)(C)C)OC(=O)CCCCCCCCC/C=C\CCCCCCCC	Å²	298.5

### Prompt Quick check: collision cross section (N2) of CCCCC/C=C\C/C=C\CCCCCCCCCC(=O)O[C@H](COC(=O)CCCCCCCCCCCCC)COP(=O)(O)OCCN ?
### Response 277.6

* * *

Conditions: [M+H]+; instrument: DT; stepped-field
Assay metric: collision cross section (N2) (Å²)
Just the number please, in Å², no unit attached.

Guide cases for collision cross section (N2), answers given:
Molecule	Unit symbol	collision cross section (N2)
CCCCCCCCCCCCC=CC[C@@H](O)[C@H](COP(=O)([O-])OCC[N+](C)(C)C)NC(=O)CC=CCC=CCCCCCCCCCCCCCCCCC	Å²	299.58
CCCCC/C=C\C=C/CCCCCCCCC(=O)O[C@H](COC(=O)CCCCCCCCCCCCCCCCC)COP(=O)([O-])OCC[N+](C)(C)C	Å²	285.92
CCCCCCCCCCCCC=CC[C@@H](O)[C@H](COP(=O)([O-])OCC[N+](C)(C)C)NC(=O)CCCCCCCCCCCCCCCCCCCCCCCC	Å²	306.91

### Prompt Quick check: collision cross section (N2) of CCCCCCCC/C=C\CCCCCCCC(=O)OC[C@H](COP(=O)(O)OC[C@H](N)C(=O)O)OC(=O)CCCCCCC/C=C\CCCCCCCC ?
### Response 280.92

### Prompt Quick check: collision cross section (N2) of CCCCCCCCCCCCCCCCCCCCCCCC(=O)N[C@@H](CO)[C@H](O)CCCCCCCCCCCCCCC ?
### Response 280.05

### Prompt Quick check: collision cross section (N2) of CCCCC/C=C\C/C=C\C/C=C\C/C=C\CCCC(=O)O[C@H](COC(=O)CCCCCCCCC/C=C\CCCCCCCC)COP(=O)(O)OC[C@H](N)C(=O)O ?
### Response 289.6

### Prompt Quick check: collision cross section (N2) of CCCCCCCCCCCCC=CC[C@@H](O)[C@H](CO[C@@H]1O[C@H](CO)[C@@H](O)C(O)C1O)NC(=O)CC=CCC=CCCCCCCCCCCCCC (some centres not stated) ?
### Response 284.43

### Prompt Quick check: collision cross section (N2) of CCCCCCCCCCCCC=CC[C@@H](O)[C@H](COP(=O)([O-])OCC[N+](C)(C)C)NC(=O)CC=CCCCCCCCCCCCCCCCCCCCCC ?
### Response 304.47

### Prompt Quick check: collision cross section (N2) of CCCCC/C=C\C/C=C\C/C=C\CCCCCCC(=O)OC[C@H](COP(=O)(O)OC[C@H](N)C(=O)O)OC(=O)CCCCCCCCCCC/C=C\C/C=C\CCCCC ?
### Response 295.24

### Prompt Quick check: collision cross section (N2) of CCCCCCCCCCCCC=CC[C@@H](O)[C@H](COP(=O)([O-])OCC[N+](C)(C)C)NC(=O)CC=CCCCCCCCCCCCCCC ?
### Response 284.15

### Prompt Quick check: collision cross section (N2) of CCCCC/C=C\C/C=C\C/C=C\CCCCCCC(=O)OC[C@H](COP(=O)(O)OC[C@H](N)C(=O)O)OC(=O)CCCCCCCCC/C=C\CCCCCCCCCC ?
### Response 296.39

### Prompt Quick check: collision cross section (N2) of CCCCC/C=C\C/C=C\C/C=C\CCCCC(=O)OC[C@H](COP(=O)(O)OC[C@H](N)C(=O)O)OC(=O)CCCCCCCCC/C=C\CCCCCCCCCC ?
### Response 291.15
